System: HeLa
run-description: Confirmatory qHTS for gynecologic anti-cancer compounds from libraries of approved drugs and bioactive compounds; further: nearly all actives have a fitted effect of over 55% in size
condition-summary: gynecologic cancer cell panel viability, ATPlite luminescence, 48 h; series mostly up to 57.6 µM
Results filed as inconclusive are left out. Active and inactive are the calls of the source. The call rests on the fitted dose curve; in most records, active means well fitted cell-killing curve with a large enough effect; inconclusive means small, poorly fitted or top-dose-only effect, or effect the other way; inactive means no such curve, though single readings can be large or run the other way.
Outcome codes: active, inactive

>>> class_name("COc1ccc(OC)c(-c2nnc3ccc(-c4ccc(OC)c(O[C@@H]5CCOC5)c4)nn23)c1")
"active"
>>> class_name("COc1cc2c(Oc3ccc(-c4cnc(Nc5ccc(F)cc5)n(C)c4=O)cc3F)ccnc2cc1OCCCN1CCOCC1")
"active"
>>> class_name("COc1cc2nccc(Oc3ccc(NC(=O)C4(C(=O)Nc5ccc(F)cc5)CC4)cc3)c2cc1OC")
"active"
>>> class_name("CC1=C(/C=C/C(C)=C/C=C/C(C)=C/C(=O)Nc2ccc(O)cc2)C(C)(C)CCC1")
"active"
>>> class_name("O=C1N(c2ccccc2)c2ccccc2C1(Cc1ccncc1)Cc1ccncc1")
"inactive"
>>> class_name("CCN(CC)CCCC(C)Nc1ccnc2cc(Cl)ccc12 (centres undefined)")
"inactive"
>>> class_name("Cc1cc(C(=O)N2CCN(c3cccc(Cl)c3)CC2)n(-c2ccccc2)n1")
"active"
>>> class_name("CCCCN(CCCC)C(=O)CN1C[C@H](c2ccc3c(c2)OCO3)[C@@H](C(=O)O)[C@@H]1c1ccc(OC)cc1")
"inactive"
>>> class_name("Cc1[nH]c2ccccc2c1CCNCc1ccc(/C=C/C(=O)NO)cc1")
"active"

====

Tested on: HeLa
run-description: Confirmatory qHTS for gynecologic anti-cancer compounds from libraries of approved drugs and bioactive compounds; further: nearly all actives have a fitted effect of over 55% in size
condition-summary: gynecologic cancer cell panel viability, ATPlite luminescence, 48 h; series mostly up to 57.6 µM
Inconclusive results are not listed. Activity calls are given as the source filed them. The call rests on the fitted dose curve; in most records, active means well fitted cell-killing curve with a large enough effect; inconclusive means small, poorly fitted or top-dose-only effect, or effect the other way; inactive means no such curve, though single readings can be large or run the other way.
Possible outcomes: active, inactive

>>> class_name("Cc1csc(NC(=O)c2sc3nc4c(c(C(F)(F)F)c3c2N)CCC4)n1")
"active"
>>> class_name("Cn1c(=O)c(-c2c(Cl)cccc2Cl)cc2cnc(Nc3cccc(C(=O)O)c3)nc21")
"active"
>>> class_name("CCC1C(=O)N(C)c2cnc(Nc3ccc(C(=O)NC4CCN(C)CC4)cc3OC)nc2N1C1CCCC1 (centres undefined)")
"active"
>>> class_name("CN(C)C/C=C/C(=O)Nc1cc2c(Nc3ccc(F)c(Cl)c3)ncnc2cc1OC1CCOC1 (centres undefined)")
"active"
>>> class_name("Cn1cc(-c2ccc3ncc(Cc4ccc5ncccc5c4)n3n2)cn1")
"inactive"
>>> class_name("Cc1nc(N)ncc1-c1nc(N2CCOCC2)c2sc(C(C)(C)O)cc2n1")
"active"
>>> class_name("NC1(c2ccc(-c3nc4ccn5c(=O)[nH]nc5c4cc3-c3ccccc3)cc2)CCC1")
"inactive"
>>> class_name("CC(=O)OC12COC1CC(O)C1(C)C(=O)C(O)C3=C(C)C(OC(=O)C(O)C(NC(=O)OC(C)(C)C)c4ccccc4)CC(O)(C(OC(=O)c4ccccc4)C21)C3(C)C (centres undefined)")
"active"
>>> class_name("c1nc2nc(Nc3ccc(N4CCOCC4)cc3)nc(NC3CCCCC3)c2[nH]1")
"active"

====

Attribute: Potency
System: HeLa
run-description: Confirmatory qHTS for gynecologic anti-cancer compounds from libraries of approved drugs and bioactive compounds; further: nearly all actives have a fitted effect of over 55% in size; further: potency means the concentration at half of the fitted maximal effect
condition-summary: gynecologic cancer cell panel viability, ATPlite luminescence, 48 h; series mostly up to 57.6 µM
Inconclusive results are not listed. The source made the active and inactive calls. The call rests on the fitted dose curve; in most records, active means well fitted cell-killing curve with a large enough effect; inconclusive means small, poorly fitted or top-dose-only effect, or effect the other way; inactive means no such curve, though single readings can be large or run the other way.
quantity: Potency

>>> value_observed("Nc1ccccc1NC(=O)c1ccc(CNc2nccc(-c3cccnc3)n2)cc1")
"1.53 µM (active)"
>>> value_observed("CC(C)(C(=O)NCC(F)(F)C(F)(F)F)C(=O)NC1C(=O)Nc2ccccc2-c2ccccc21 (centres undefined)")
"6.11 µM (active)"
>>> value_observed("CCS(=O)(=O)N1CCN(c2ccc(Nc3ncc(C(N)=O)c(NC4CC4)n3)cc2)CC1")
"4.85 µM (active)"
>>> value_observed("CCOc1cc2ncc(C#N)c(Nc3ccc(F)c(Cl)c3)c2cc1NC(=O)/C=C/CN(C)C")
"24.3 µM (active)"
>>> value_observed("C=CC(=O)Nc1cccc(Oc2nc(Nc3ccc(N4CCN(C)CC4)cc3)ncc2Cl)c1")
"6.85 µM (active)"
>>> value_observed("Cc1c(NC(=O)OCC2COCCN2)cn2ncnc(Nc3ccc4c(cnn4Cc4cccc(F)c4)c3)c12 (centres undefined)")
"34.3 µM (active)"
>>> value_observed("COc1cc2nccc(Oc3ccc(NC(=O)Nc4cc(C)on4)c(Cl)c3)c2cc1OC")
"15.3 µM (active)"
>>> value_observed("CC(C)c1nn(-c2c(Cl)cccc2Cl)c2nc(Cc3ccc(OCCO)cc3)[nH]c(=O)c12")
"0.122 µM (active)"
>>> value_observed("CNC(=O)c1ccccc1Nc1nc(Nc2ccc(N3CCOCC3)cc2OC)ncc1Cl")
"0.769 µM (active)"

====

System: HeLa
run-description: Confirmatory qHTS for gynecologic anti-cancer compounds from libraries of approved drugs and bioactive compounds; further: nearly all actives have a fitted effect of over 55% in size
condition-summary: gynecologic cancer cell panel viability, ATPlite luminescence, 48 h; series mostly up to 57.6 µM
From the text: National Center for Advancing Translational Sciences [NCATS] Assay Overview: Chemotherapeutic drug responses vary from cancer to cancer and from patient to patient. […] ATPlite is a luminescence based assay reliant on the conversion of a luciferase substrate to light in the presence of ATP. As a cytotoxic compound will suppress growth and decrease the number of cells, the concentration of ATP will decrease, and less light signal will be detected in the well. […]
Results filed as inconclusive are left out. The source made the active and inactive calls. The call rests on the fitted dose curve; in most records, active means well fitted cell-killing curve with a large enough effect; inconclusive means small, poorly fitted or top-dose-only effect, or effect the other way; inactive means no such curve, though single readings can be large or run the other way.
Outcome codes: true = active, false = inactive

>>> class_name("CC(=O)O[C@H]1C(=O)[C@@]2(C)[C@H]([C@H](OC(=O)c3ccccc3)[C@]3(O)C[C@H](OC(=O)[C@H](O)[C@@H](NC(=O)c4ccccc4)c4ccccc4)C(C)=C1C3(C)C)[C@]1(OC(C)=O)CO[C@@H]1C[C@@H]2O")
"true"
>>> class_name("Cc1ccc(C(=O)N(CCCN)C(c2nc3cc(Cl)ccc3c(=O)n2Cc2ccccc2)C(C)C)cc1 (stereo not drawn)")
"true"
>>> class_name("COc1cc2c(c(OC)c1OC)-c1ccc(OC)c(=O)cc1[C@@H](NC(C)=O)CC2")
"true"
>>> class_name("Cc1cc(Nc2cc(N3CCN(C)CC3)nc(Sc3ccc(NC(=O)C4CC4)cc3)n2)n[nH]1")
"true"
>>> class_name("CNc1nc(Nc2ccc(C(=O)N3CCOCC3)cc2OC)ncc1Cl")
"true"
>>> class_name("COc1ccc(CCC(=O)c2c(O)cc(O[C@@H]3O[C@H](CO)[C@@H](O)[C@H](O)[C@H]3O[C@@H]3O[C@@H](C)[C@H](O)[C@@H](O)[C@H]3O)cc2O)cc1O")
"false"
>>> class_name("CCCCc1oc2ccc(NS(C)(=O)=O)cc2c1C(=O)c1ccc(OCCCN(CCCC)CCCC)cc1")
"true"
>>> class_name("CC(=O)Nc1cccc(-n2c(=O)n(C3CC3)c(=O)c3c(Nc4ccc(I)cc4F)n(C)c(=O)c(C)c32)c1")
"false"

====

Potency listing for selected compounds.
Tested on: HeLa
run-description: Confirmatory qHTS for gynecologic anti-cancer compounds from libraries of approved drugs and bioactive compounds; further: nearly all actives have a fitted effect of over 55% in size; further: potency means the concentration at half of the fitted maximal effect
condition-summary: gynecologic cancer cell panel viability, ATPlite luminescence, 48 h; series mostly up to 57.6 µM
From the text: National Center for Advancing Translational Sciences [NCATS] Assay Overview: Chemotherapeutic drug responses vary from cancer to cancer and from patient to patient. […] ATPlite is a luminescence based assay reliant on the conversion of a luciferase substrate to light in the presence of ATP. As a cytotoxic compound will suppress growth and decrease the number of cells, the concentration of ATP will decrease, and less light signal will be detected in the well. […]
Results filed as inconclusive are left out. The source made the active and inactive calls. Calls come from the whole dose curve; as a rule, active = well fitted cell-killing curve with a large enough effect; inconclusive = small, poorly fitted or top-dose-only effect, or effect the other way; inactive = no such curve, though single readings can be large or run the other way.
quantity: Potency

>>> value_observed("C[C@@H](Oc1cc(-c2cnn(C3CCNCC3)c2)cnc1N)c1c(Cl)ccc(F)c1Cl")
"4320 nM (active)"
>>> value_observed("COCCOc1ccc2c(c1)ncn2-c1ccc2cccc(N3CCC(N)CC3)c2n1")
"12200 nM (active)"
>>> value_observed("CC(Oc1cc(-n2cnc3ccc(CN4CCN(C)CC4)cc32)sc1C(N)=O)c1ccccc1C(F)(F)F (centres undefined)")
"2430 nM (active)"
>>> value_observed("COc1cc(C(=O)N2CCC(N3CCN(C)CC3)CC2)ccc1Nc1ncc2c(n1)N(C)c1ccccc1C(=O)N2C")
"17200 nM (active)"
>>> value_observed("Cc1nc(N)sc1-c1ccnc(Nc2ccc(N3CCOCC3)cc2)n1")
"2170 nM (active)"
>>> value_observed("COc1cc2c(cc1-c1c(C)noc1C)ncc1[nH]c(=O)n(C(C)c3ccccn3)c12 (centres undefined)")
"544 nM (active)"
>>> value_observed("CC(C)Oc1ccc(C(=O)NC(CNC(=O)CN(C)C)Cc2ccc(-c3cn4cccc(C(C)O)c4n3)cc2)cc1Cl (centres undefined)")
"153 nM (active)"
>>> value_observed("CN(NC(=O)CC(=O)NN(C)C(=S)c1ccccc1)C(=S)c1ccccc1")
"122 nM (active)"
>>> value_observed("CCn1cc(-c2ccnc3[nH]c(-c4cccc(CN(C)C)c4)cc23)c(-c2ccc(NC(=O)N(C)C)cc2)n1")
"2980 nM (active)"
